# target desc: Neuropilin-1 (Homo sapiens)
# Sequence (O14786 whole entry): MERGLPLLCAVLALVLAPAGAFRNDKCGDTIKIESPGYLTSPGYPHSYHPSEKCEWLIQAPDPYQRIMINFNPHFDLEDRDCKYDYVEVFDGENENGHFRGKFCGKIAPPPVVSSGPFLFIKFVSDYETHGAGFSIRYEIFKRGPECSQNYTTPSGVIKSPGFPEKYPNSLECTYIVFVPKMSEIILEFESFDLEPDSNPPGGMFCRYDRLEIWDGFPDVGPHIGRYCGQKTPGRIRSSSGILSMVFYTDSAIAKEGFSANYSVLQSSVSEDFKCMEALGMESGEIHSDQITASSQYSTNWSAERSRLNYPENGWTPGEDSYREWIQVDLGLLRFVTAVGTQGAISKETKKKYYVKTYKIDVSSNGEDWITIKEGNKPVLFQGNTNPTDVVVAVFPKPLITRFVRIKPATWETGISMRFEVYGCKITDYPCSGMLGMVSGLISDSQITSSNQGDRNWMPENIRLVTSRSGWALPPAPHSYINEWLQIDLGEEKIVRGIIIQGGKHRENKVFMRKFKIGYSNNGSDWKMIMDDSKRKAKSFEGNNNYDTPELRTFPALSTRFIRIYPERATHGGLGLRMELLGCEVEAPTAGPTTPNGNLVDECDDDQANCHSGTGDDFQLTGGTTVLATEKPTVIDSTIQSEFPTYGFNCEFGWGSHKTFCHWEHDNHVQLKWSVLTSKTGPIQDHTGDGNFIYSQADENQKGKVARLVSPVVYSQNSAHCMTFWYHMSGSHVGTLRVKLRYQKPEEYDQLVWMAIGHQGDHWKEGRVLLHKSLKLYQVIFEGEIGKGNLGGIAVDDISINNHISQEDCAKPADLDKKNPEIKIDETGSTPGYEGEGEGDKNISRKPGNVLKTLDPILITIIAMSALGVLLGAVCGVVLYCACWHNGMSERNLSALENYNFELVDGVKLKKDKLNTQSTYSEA
# procedure details: Inhibition of human biotinylated VEGF-A165 binding to recombinant human NRP1 receptor at 2.5 uM after 2 hrs by chemiluminescence analysis relative to control
Square brackets hold non-standard residues; d marks the D form. Peptide text beside a SMILES is read from it. Oic = O=C(O)[C@@H]1C[C@@H]2CCCC[C@@H]2N1; Hyp = O=C(O)[C@@H]1C[C@@H](O)CN1; hArg = N=C(N)NCCCC[C@H](N)C(=O)O; ΔPro = O=C(O)[C@@H]1C=CCN1; Aze = O=C(O)[C@@H]1CCN1; Dab = NCC[C@H](N)C(=O)O
measured parameter: inhibition (%)

[[record]]
compound = "N=C(N)NCCCC[C@H](N)C(=O)NCCCC[C@H](N)C(=O)N[C@@H](CCN)C(=O)N1[C@H](C(=O)N[C@@H](CCCNC(=N)N)C(=O)O)C[C@@H]2CCCC[C@@H]21 (H-K(hArg)[Dab][Oic]R-OH)"
readout_number = 50.9

[[record]]
compound = "N=C(N)NCCCC[C@H](N)C(=O)NCCCC[C@H](N)C(=O)N[C@@H](CCN)C(=O)N1CCC[C@H]1C(=O)N[C@@H](CCCNC(=N)N)C(=O)O (H-K(hArg)[Dab]PR-OH)"
readout_number = 31.4

[[record]]
compound = "N=C(N)NCCCC[C@H](N)C(=O)NCCCC[C@H](N)C(=O)N1[C@H](C(=O)N2[C@H](C(=O)N[C@@H](CCCNC(=N)N)C(=O)O)C[C@@H]3CCCC[C@@H]32)C[C@@H]2CCCC[C@@H]21 (H-K(hArg)[Oic][Oic]R-OH)"
readout_number = 42.1


P = N=C(N)NCCCC[C@H](N)C(=O)NCCCC[C@H](N)C(=O)N[C@@H](CCN)C(=O)N1CC[C@H]1C(=O)N[C@@H](CCCNC(=N)N)C(=O)O (H-K(hArg)[Dab][Aze]R-OH)
Q = N=C(N)NCCCC[C@H](N)C(=O)NCCCC[C@H](N)C(=O)N[C@@H](CCN)C(=O)N1CC=C[C@H]1C(=O)N[C@@H](CCCNC(=N)N)C(=O)O (H-K(hArg)[Dab][ΔPro]R-OH)
R = N=C(N)NCCCC[C@H](N)C(=O)NCCCC[C@H](N)C(=O)N[C@@H](CCN)C(=O)N1C[C@H](O)C[C@H]1C(=O)N[C@@H](CCCNC(=N)N)C(=O)O (H-K(hArg)[Dab][Hyp]R-OH)
Exam item: Task field, ranking: reported inhibition, descending order. Your reply should list the labels following the order given in the request.
Marked response: Q, R, P
(Q: 44.8%, R: 22.3%, P: 12.9%)

----------
# target desc: Neuropilin-1 (Homo sapiens)
# procedure details: Inhibition of human biotinylated VEGF-A165 binding to recombinant human NRP1 receptor at 25 uM after 2 hrs by chemiluminescence analysis relative to control
Square brackets hold non-standard residues; d marks the D form. Peptide text beside a SMILES is read from it. Oic = O=C(O)[C@@H]1C[C@@H]2CCCC[C@@H]2N1; Hyp = O=C(O)[C@@H]1C[C@@H](O)CN1; hArg = N=C(N)NCCCC[C@H](N)C(=O)O
measured parameter: inhibition (%)

[[record]]
compound = "N=C(N)NCCCC[C@H](N)C(=O)NCCCC[C@H](N)C(=O)N1C[C@H](O)C[C@H]1C(=O)N1C[C@H](O)C[C@H]1C(=O)N[C@@H](CCCNC(=N)N)C(=O)O (H-K(hArg)[Hyp][Hyp]R-OH)"
measured_parameter = "inhibition"
readout_number = 56.8

[[record]]
compound = "N=C(N)NCCCC[C@H](N)C(=O)NCCCC[C@H](N)C(=O)N1[C@H](C(=O)N2[C@H](C(=O)N[C@@H](CCCNC(=N)N)C(=O)O)C[C@@H]3CCCC[C@@H]32)C[C@@H]2CCCC[C@@H]21 (H-K(hArg)[Oic][Oic]R-OH)"
measured_parameter = "inhibition"
readout_number = 68.2


----------
# target desc: UniProtKB O14786
# procedure details: Inhibition of human biotinylated VEGF-A165 binding to recombinant human NRP1 receptor at 10 uM after 2 hrs by chemiluminescence analysis relative to control
Square brackets hold non-standard residues; d marks the D form. Peptide text beside a SMILES is read from it. Oic = O=C(O)[C@@H]1C[C@@H]2CCCC[C@@H]2N1; Hyp = O=C(O)[C@@H]1C[C@@H](O)CN1; Pip(4-aza) = O=C(O)[C@@H]1CNCCN1; hArg = N=C(N)NCCCC[C@H](N)C(=O)O; ΔPro = O=C(O)[C@@H]1C=CCN1; Aze = O=C(O)[C@@H]1CCN1; Dab = NCC[C@H](N)C(=O)O
measured parameter: inhibition (%)

Solved entries:
[[record]]
compound = "N=C(N)NCCCC[C@H](N)C(=O)NCCCC[C@H](N)C(=O)N[C@@H](CCN)C(=O)N1CC[C@H]1C(=O)N[C@@H](CCCNC(=N)N)C(=O)O (H-K(hArg)[Dab][Aze]R-OH)"
readout_number = 49.6

[[record]]
compound = "N=C(N)NCCCC[C@H](N)C(=O)NCCCC[C@H](N)C(=O)N1[C@H](C(=O)N2[C@H](C(=O)N[C@@H](CCCNC(=N)N)C(=O)O)C[C@@H]3CCCC[C@@H]32)C[C@@H]2CCCC[C@@H]21 (H-K(hArg)[Oic][Oic]R-OH)"
readout_number = 53.4


P = N=C(N)NCCCC[C@H](N)C(=O)NCCCC[C@H](N)C(=O)N[C@@H](CCN)C(=O)N1CC=C[C@H]1C(=O)N[C@@H](CCCNC(=N)N)C(=O)O (H-K(hArg)[Dab][ΔPro]R-OH)
Q = N=C(N)NCCCC[C@H](N)C(=O)NCCCC[C@H](N)C(=O)N1C[C@H](O)C[C@H]1C(=O)N1C[C@H](O)C[C@H]1C(=O)N[C@@H](CCCNC(=N)N)C(=O)O (H-K(hArg)[Hyp][Hyp]R-OH)
R = N=C(N)NCCCC[C@H](N)C(=O)NCCCC[C@H](N)C(=O)N[C@@H](CCN)C(=O)N1CCNC[C@H]1C(=O)N[C@@H](CCCNC(=N)N)C(=O)O (H-K(hArg)[Dab][Pip(4-aza)]R-OH)
Exam item: Hello, I need these entries ordered by inhibition, highest reading first. Thanks! List each label, following the requested order.
Marked response: P, Q, R
(P: 70.7%, Q: 36.7%, R: 20.8%)

Ref: ChEMBL document CHEMBL4480373
